# Target Entity: human FPR2 (Homo sapiens (Human))
# Sequence (P25090 whole entry): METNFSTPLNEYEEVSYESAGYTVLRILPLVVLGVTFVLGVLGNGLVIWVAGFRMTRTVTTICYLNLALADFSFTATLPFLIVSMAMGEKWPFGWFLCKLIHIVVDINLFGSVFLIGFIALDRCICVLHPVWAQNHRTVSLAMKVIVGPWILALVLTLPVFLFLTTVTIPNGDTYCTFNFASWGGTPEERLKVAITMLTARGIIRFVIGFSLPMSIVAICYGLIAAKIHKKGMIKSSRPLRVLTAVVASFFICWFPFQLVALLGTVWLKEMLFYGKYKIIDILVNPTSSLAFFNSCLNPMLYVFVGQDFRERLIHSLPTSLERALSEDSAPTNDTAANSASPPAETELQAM
# Assay Details: FPR2 cyclic adenosine monophosphate (cAMP) assay
# Particulars: CHO cells overexpressing human FPR2; forskolin 5 µM; inhibition of cAMP production; read-out: hFPR2 cAMP2 EC50
pEC50: −log10 of the molar value.
Property Name: pEC50

COc1cc(F)c([C@@H]2CN(c3ccc(C)n(C)c3=O)C(=O)[C@H]2NC(=O)c2ccc(OC(F)F)cc2)c(F)c1 | 7.96
CCn1ccc(C)c(N2C[C@@H](c3ccc(OC)cc3F)[C@H](NC(=O)c3ccc(OC(F)(F)F)cc3)C2=O)c1=O | 8.32
COc1cc(F)c([C@@H]2CN(c3c(C)ccn(CCC(F)(F)F)c3=O)C(=O)[C@H]2NC(=O)c2ccc(Cl)cc2)c(F)c1 [Example 611] | 8.62

I = COc1ccc([C@@H]2CN(c3c(C)ccn(CC4CC4)c3=O)C(=O)[C@H]2NC(=O)c2ccc(OC(F)(F)F)cc2)c(F)c1
II = COc1cc(F)c([C@@H]2CN(c3cc(C)cc(C4CCN(CCO)CC4)n3)C(=O)[C@H]2NC(=O)c2ccc(OC(F)F)cc2)c(F)c1
III = COc1ccc([C@@H]2CN(c3cccn(CC(C)O)c3=O)C(=O)[C@H]2NC(=O)c2ccc(OC(F)(F)F)cc2)c(F)c1 (stereo partly shown)
IV = COc1cc(F)c([C@@H]2CN(c3cnn4c3OCCC4)C(=O)[C@H]2NC(=O)c2ccc(OC(F)F)cc2)c(F)c1
V = COc1cc(F)c([C@@H]2CN(c3c(C)ccn(C4CCOC4)c3=O)C(=O)[C@H]2NC(=O)c2ccc(OC(F)(F)F)cc2)c(F)c1 (stereo partly shown) [Example 350]
Lookup: Rank the 5 molecules: largest pEC50 first, smallest last. Answer format: the labels, ordered as requested.
Found: V, IV, III, II, I

Origin of measurements: patent US20230348426A1
